Assay: protein stability index of a GFP-peptide fusion (GPS, HEK-293T) (PSI 1-6); higher = more stable;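 note: 24-mer peptide tiles fused after GFP, lentivirally expressed, FACS-sorted into six equal bins by GFP/DsRed ratio, decoded by Illumina sequencing, PSI is the read-weighted mean bin number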
Details: treatment: DMSO; c terminus: a fixed tail appended
Kindly state protein stability index for each of the entries shown.
Give bare numbers.

These solved cases illustrate the format of a correct answer.
YLMKTKQFRLKEAFDYIKQRRSMV [DUSP5] = 2.19
TLSTIEFQREALENSHTNTEVLRN [CHMP4C] = 4.66
TKEVMNKYKVHGKEILRTLQDVFC [PPEF2] = 2.63

# map each sequence to its protein stability index
1. AVDAGDPAVEACENRRKVLYQRAP [TCF25]
2. FMQTGYNKLCDWWSLGVIMYEMLI [STK38L]
3. DARQLFVLAGAAEEGFMTAELAGV [GNAI1]

Result:
1: 4.62; 2: 2.77; 3: 2.75

# map each sequence to its protein stability index
1. CEHECVNADGSYLCQCHEGFALNP [MATN2]
2. HRELLRLESRIRDVHELFLQMAVL [STX11]
3. KVVLSDAYAHPQQKVAVYRALQAA [TRADD]
4. ESRMRIESLSSQLSNLQKESRACL [LMNB1]
5. PGPMDWVPRYTGVAPQDQCKLTCQ [ADAMTS4]
6. ILKQLIADVTLDPETAHPNLVLSE [TRIM39]
7. SQSSTYRGTYEQDGRFEKRQGNPS [ZNF396]
8. EKEIEEATKKLGFKHPVIGVHVRR [FUT8]

Result:
1: 4.77; 2: 2.49; 3: 2.9; 4: 3.63; 5: 3.77; 6: 2.67; 7: 4.74; 8: 3.99

# map each sequence to its protein stability index
1. KGNPEEEDVDTSQVLYEWEQGFSQ [CTNNB1]
2. WTLEDEIHSPAHPEIEKADDHLQQ [ZNF649]

Result:
[5.11, 5.2]

# map each sequence to its protein stability index
1. CVRRRYSDFEWLKNELERDSKIVV [SNX12]
2. VKTKKNAPSATIHQGEEEGPLDIW [FBXO34]
3. SELSEHLRDPLTSLSHTELEAAEV [FCHSD1]
4. NFLACLASFCVETNNGAGFGLSIL [SCAMP3]

Result:
1. 2.7
2. 4.21
3. 5.22
4. 3.02

====

Assay: protein stability index of a GFP-peptide fusion (GPS, HEK-293T) (PSI 1-6); higher = more stable
Conditions: treatment: DMSO; c terminus: a fixed tail appended
# if value of protein stability index reaches 3, tag criterion met; if it stays below, tag criterion not met

The examples below pair each entry with its known result.
NFLTQRENTIAGANHTHTFYGHSH [C10orf62] = criterion met
LLWATNEFSLVNVNLQRFGMNGQM [ETS2] = criterion not met
ALNSMLRRRFREKKKAIQEEEERD [YJU2B] = criterion met
MLQIPQEKSQAYPRRRRPGCYAYR [MYORG] = criterion met

Problem: Textbook exercise: given the entry LRGPRERAPSERSGPAASEHSHRS [DVL3] , state whether its protein stability index is greater than or equal to 3.
Result: criterion met

Problem: Textbook exercise: given the entry FICKECGKAYGWCSELIRHRRVHA [ZNF232] , state whether its protein stability index is greater than or equal to 3.
Result: criterion met

Problem: Textbook exercise: given the entry VGYTRGLHVWQITWAMRQRGTHAV [SPSB1] , state whether its protein stability index is greater than or equal to 3.
Result: criterion not met

Problem: Textbook exercise: given the entry SLGYGTNVAATGISQYEDDLPPPP [APBB1IP] , state whether its protein stability index is greater than or equal to 3.
Result: criterion met

Problem: Textbook exercise: given the entry DNALWERDRNLLQEDKALWEEEKA [CCDC70] , state whether its protein stability index is greater than or equal to 3.
Result: criterion met

Problem: Textbook exercise: given the entry SCAPSASIPKLKLTRPVPAGADLP [PWWP2B] , state whether its protein stability index is greater than or equal to 3.
Result: criterion met

Problem: Textbook exercise: given the entry LDVECHEKEKHVNQLQTKVAVLEQ [SASS6] , state whether its protein stability index is greater than or equal to 3.
Result: criterion met

Problem: Textbook exercise: given the entry PDRVYIHPDSPATGAHWMRQPVSF [TBX6] , state whether its protein stability index is greater than or equal to 3.
Result: criterion not met

Problem: Textbook exercise: given the entry GGRFRCPSCRHEVVLDRHGVYGLQ [TRIM55] , state whether its protein stability index is greater than or equal to 3.
Result: criterion not met

====

Kindly state protein stability index for each of the entries shown.
Experiment: protein stability index of a GFP-peptide fusion (GPS, HEK-293T) (PSI 1-6); higher = more stable
Details: treatment: DMSO; c terminus: a fixed tail appended
Answers are plain numbers.

These solved cases illustrate the format of a correct answer.
LDSEIKKNSDGMEAAGVQIQMVNE [CD207] = 5.41
METLCLRASFWLALVGCVISDNPE [EDNRA] = 3.25
STAPGLFLVSTHTGEVRTARALLE [PCDHGC5] = 2.5

# map each sequence to its protein stability index
1. PLTFDKNENMAAKKKSVAMHTNYL [GNB5]
2. HDFIEHILRKLPQQREKLSLIRKH [CCND2]
3. QSPTLEFLLRNSQRTVGQLMELCR [EDARADD]
4. KQQWEIMHKHNETSQKIAARAFAQ [RSPH3]
5. LSLCCWGWVSGQLRYSVVEESEPG [PCDHGC5]

Result:
1: 3.33; 2: 2.3; 3: 2.49; 4: 3.41; 5: 2.65

====

Experiment: protein stability index of a GFP-peptide fusion (GPS, HEK-293T) (PSI 1-6); higher = more stable
Settings: treatment: MLN4924 1 uM, 8 h; c terminus: a fixed tail appended
Kindly state protein stability index for each of the entries shown.
One number for each entry.

# map each sequence to its protein stability index
1. PGPMDWVPRYTGVAPQDQCKLTCQ [ADAMTS4]
2. GTVIGVTSCIVIILIIISVIVQIK [NETO1]
3. LRVWDMFFCEGVKIIFRVGLVLLK [TBC1D10A]
4. VLEIEQSMNRVKNISDADVHNAMD [FEM1B]
5. KCASDIFQASNPYLPTRGGTTMAS [TRIM55]
6. VGLAAVNSMPVDNRNHNEGMVTRC [CHGB]

Result:
[4.14, 3.02, 2.37, 4.32, 2.86, 4.3]

# map each sequence to its protein stability index
1. MRQDLEEERVALNTEIEKLGRSIV [PKD2L1]
2. LRGPRERAPSERSGPAASEHSHRS [DVL3]
3. KEAGVQKLILTSSASVIFEGVDIK [NSDHL]
4. KLGPALKIYEYHVKPLQTKHLKNN [SAMD13]
5. WGRLTSYSGGGYYLDLPGSRQGSA [PKD2L1]
6. SRSQNTDMVQKSVSKTLPSTWSDP [CLINT1]
7. VSERSFDNVRSLKVESGAWIGYEH [CRYBA1]

Result:
1: 4.38; 2: 5.34; 3: 2.84; 4: 2.54; 5: 2.69; 6: 3.98; 7: 3.02

====

Kindly state protein stability index for each of the entries shown.
Experiment: protein stability index of a GFP-peptide fusion (GPS, HEK-293T) (PSI 1-6); higher = more stable
Settings: treatment: DMSO; c terminus: a fixed tail appended
Numbers only.

ELGSPLRRSISSSRSENVLSRLSL [PSD2] = 3.07
KLGPALKIYEYHVKPLQTKHLKNN [SAMD13] = 2.46
MYGVDLHHAKDSEGVEIMLGVCAS [EPB41L3] = 2.71
CSFCKRAFPSGHLLDAHILEWHDS [ZNF511] = 5.19
VCALSALPAGPLPAPLLVLCPSRA [PLEKHN1] = 2.12

# map each sequence to its protein stability index
1. DKFKRPTPPPSPNTQTPVQPPPPP [CCDC6]
2. RETYPRTPYVRWNYVAKNFAQALG [SOAT2]
3. NVKYLKKILDELEKVLDQVETELQ [GDAP1]
4. GGYGFGRGRASGFAGSMFGSVALG [KRT71]
5. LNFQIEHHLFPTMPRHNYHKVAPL [FADS1]

Result:
1: 5.03; 2: 2.34; 3: 4.25; 4: 3.05; 5: 1.98

# map each sequence to its protein stability index
1. YCHPDSETDEDEEEGDEQQRLLNT [GMCL1]
2. PSDKMKWCLRVNPKGLDDESKDYL [SPOPL]

Result:
1: 5.33; 2: 3.22

# map each sequence to its protein stability index
1. EILSSRASYSGKAADVWSLGVALF [TRIB3]
2. VYCGAGVQKEHEEYMKNLLKVGGI [PCMTD2]
3. ELEEDDGHGAEQAAAFPTEDSRTS [EHMT1]

Result:
1. 2.52
2. 2.75
3. 5.65

Cited source for all entries: the supplement of paper PMC10567573
